Target: PDE 7 (phosphodiesterase VII) (Homo sapiens (Human))
Experiment: PDE 7 inhibiting effect (3H-cAMP hydrolysis, PDE 7 active fraction from MOLT-4 cells)
Format: biochemical
Conditions: PDE 7 fraction from MOLT-4 cells, 0.064 μM cAMP, 10 μM rolipram, 2 hours at 25° C.; read-out: PDE7 IC50
Structures can show the parent of a compound that is named as a salt.
observable: IC50 (nM)
Value expressed in nM; do not type the unit.

[[record]]
molecule = "Cc1nn(C2CCCCC2)c2sc(C(=O)N[C@H]3CC[C@H](N4CCN(C)CC4=O)CC3)cc12 [Example 416]"
readout_number = 17

[[record]]
molecule = "COC(=O)c1ccc(NC(=O)c2cc3c(C)nn(C4CCCCC4)c3s2)cn1 [Example 102]"
readout_number = 85

[[record]]
molecule = "Cc1nn(C2CCCCC2)c2sc(C(=O)N[C@H]3CC[C@H](CO)C3)cc12 [Example 257]"
readout_number = 68

[[record]]
molecule = "Cc1nn(C2CCCCC2)c2sc(C(=O)N[C@@H]3CCN(C(=O)N(C)C)C3)cc12 [Example 323, HCl salt]"
readout_number = 71

[[record]]
molecule = "Cc1nn(C2CCCCC2)c2sc(C(=O)Nc3ccc(S(=O)(=O)N4CCN(CCO)CC4)cc3)cc12 [Example 79]"
readout_number = 60


Query: What measured IC50 goes with Cc1nn(C2CCCCC2)c2sc(C(=O)N[C@H]3CC[C@H](C(=O)O)C3)cc12 [Example 227] ?
Reply: 56

Query: What measured IC50 goes with Cc1nn(C2CCCCC2)c2sc(C(=O)N[C@H]3CCN(C(=O)N(C)C)C3)cc12 [Example 246, HCl salt] ?
Reply: 51

Query: What measured IC50 goes with Cc1nn(C2CCCCC2)c2sc(C(=O)Nc3ccc(C(=O)O)cc3)cc12 [Example 41] ?
Reply: 50

---

The following molecules are shown together with reported pIC50 values.
Target: PDE 7 (phosphodiesterase VII) (Homo sapiens (Human), UniProt Q13946)
Sequence (Q13946 whole entry): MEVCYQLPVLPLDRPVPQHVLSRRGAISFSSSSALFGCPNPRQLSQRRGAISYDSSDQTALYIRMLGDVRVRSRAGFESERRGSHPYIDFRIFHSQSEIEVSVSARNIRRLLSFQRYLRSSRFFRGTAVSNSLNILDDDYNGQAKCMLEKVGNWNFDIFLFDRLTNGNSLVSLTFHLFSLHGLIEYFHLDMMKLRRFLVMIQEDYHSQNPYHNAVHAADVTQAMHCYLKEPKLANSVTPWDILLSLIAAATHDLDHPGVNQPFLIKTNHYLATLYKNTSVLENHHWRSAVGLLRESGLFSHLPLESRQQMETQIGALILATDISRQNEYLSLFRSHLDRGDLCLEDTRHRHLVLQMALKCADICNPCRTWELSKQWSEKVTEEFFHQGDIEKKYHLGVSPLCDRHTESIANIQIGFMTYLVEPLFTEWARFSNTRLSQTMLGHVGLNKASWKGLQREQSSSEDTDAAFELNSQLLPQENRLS
Experiment: PDE 7 inhibiting effect (3H-cAMP hydrolysis, PDE 7 active fraction from MOLT-4 cells)
Format: biochemical
Conditions: PDE 7 fraction from MOLT-4 cells, 0.064 μM cAMP, 10 μM rolipram, 2 hours at 25° C.; read-out: PDE7 IC50
// field semantics: pIC50 = negative decimal log of concentration (mol/L)

[[record]]
chemical_structure = "Cc1nn(C2CCCCC2)c2sc(C(=O)Nc3ccc(NC=O)cc3)cc12"
tgt = "PDE 7 (phosphodiesterase VII) (Homo sapiens (Human), UniProt Q13946)"
readout_number = 7.26

[[record]]
chemical_structure = "Cc1nn(C2CCCCC2)c2sc(C(=O)N[C@H]3CC[C@H](C(=O)N4CCOCC4)CC3)cc12"
tgt = "PDE 7 (phosphodiesterase VII) (Homo sapiens (Human), UniProt Q13946)"
readout_number = 7.70

[[record]]
chemical_structure = "CC[C@H](CN1C(=O)CNC1=O)NC(=O)c1cc2c(C)nn(C3CCCCC3)c2s1"
tgt = "PDE 7 (phosphodiesterase VII) (Homo sapiens (Human), UniProt Q13946)"
readout_number = 7.54

[[record]]
chemical_structure = "Cc1nn(C2CCCCC2)c2sc(C(=O)N[C@H]3CC[C@H](N4C[C@@H](C)O[C@@H](C)C4)CC3)cc12"
tgt = "PDE 7 (phosphodiesterase VII) (Homo sapiens (Human), UniProt Q13946)"
readout_number = 7.89

[[record]]
chemical_structure = "Cc1nn(C2CCCCC2)c2sc(C(=O)Nc3ccc(C(=O)N4CCCN(C)CC4)nc3)cc12"
tgt = "PDE 7 (phosphodiesterase VII) (Homo sapiens (Human), UniProt Q13946)"
readout_number = 7.13


Query: What measured pIC50 goes with Cc1nn(C2CCCCC2)c2sc(C(=O)N[C@H]3CC[C@H](N4CCNCC4)CC3)cc12 ?
Reply: 8.19

Query: What measured pIC50 goes with Cc1nn(C2CCCCC2)c2sc(C(=O)Nc3ccc(N4CCC(O)CC4)c(C#N)c3)cc12 ?
Reply: 8.35

Query: What measured pIC50 goes with Cc1nn(C2CCCCC2)c2sc(C(=O)N[C@H]3CC[C@H](N4CCC(O)CC4)CC3)cc12 ?
Reply: 7.70

---

Target: PDE 7 (phosphodiesterase VII) (Homo sapiens (Human), UniProt Q13946)
Experiment: PDE 7 inhibiting effect (3H-cAMP hydrolysis, PDE 7 active fraction from MOLT-4 cells)
Format: biochemical
Details: PDE 7 fraction from MOLT-4 cells, 0.064 μM cAMP, 10 μM rolipram, 2 hours at 25° C.; read-out: PDE7 IC50
Method: Methods for Evaluating the PDE 7 Inhibiting Effect The PDE 7 (phosphodiesterase VII) inhibiting effect of the compounds of the present invention was performed by the following method, which was modified assay method described in Biochemical. Pharmacol. 48(6), 1219-1223 (1994). • (1) The active fraction of PDE 7 (phosphodiesterase VII) was obtained. […]
observable: IC50 (nM)
Value expressed in nM; do not type the unit.

Query: What measured IC50 goes with CNC1CCN(c2ccc(NC(=O)c3cc4c(C)nn(C5CCCCC5)c4s3)cc2F)CC1 ?
Reply: 14

Query: What measured IC50 goes with Cc1nn(C2CCCCC2)c2sc(C(=O)N[C@H](C)CN3C(=O)CNC3=O)cc12 ?
Reply: 34

Query: What measured IC50 goes with Cc1nn(C2CCCCC2)c2sc(C(=O)Nc3ccc(N4CCC(O)CC4)c(C(=O)O)c3)cc12 ?
Reply: 7.2

Query: What measured IC50 goes with CC(=O)N1CCc2cc(NC(=O)c3cc4c(C)nn(C5CCCCC5)c4s3)ccc21 ?
Reply: 19

Query: What measured IC50 goes with Cc1nn(C2CCCCC2)c2sc(C(=O)N[C@H]3CC[C@H](CN4C(=O)CNC4=O)CC3)cc12 ?
Reply: 6.5

Query: What measured IC50 goes with Cc1nn(C2CCCCC2)c2sc(C(=O)NC3CCN(S(=O)(=O)N(C)C)CC3)cc12 ?
Reply: 41

Query: What measured IC50 goes with Cc1nn(C2CCCCC2)c2sc(C(=O)NC3CCN(C(=O)N(C)C)CC3)cc12 ?
Reply: 17

Query: What measured IC50 goes with Cc1nn(C2CCCCC2)c2sc(C(=O)Nc3ccc(OCC(=O)N(C)C)cc3)cc12 ?
Reply: 20

---

The following compounds are shown together with reported IC50 values.
Biological target: PDE 7 (phosphodiesterase VII) (Homo sapiens (Human), UniProt Q13946)
Experiment: PDE 7 inhibiting effect (3H-cAMP hydrolysis, PDE 7 active fraction from MOLT-4 cells)
Format: biochemical
Settings: PDE 7 fraction from MOLT-4 cells, 0.064 μM cAMP, 10 μM rolipram, 2 hours at 25° C.; read-out: PDE7 IC50

[[record]]
chemical_structure = "Cc1nn(C2CCCCC2)c2sc(C(=O)Nc3ccc(S(=O)(=O)N4CCN(C)CC4)cc3)cc12"
observable = "IC50"
result = "40 nM"


Query: # value lookup — system PDE 7 (phosphodiesterase VII) (Homo sapiens (Human), UniProt Q13946), readout IC50, item COCCN(C)[C@H]1CC[C@H](NC(=O)c2cc3c(C)nn(C4CCCCC4)c3s2)CC1
Reply: 48 nM

Query: # value lookup — system PDE 7 (phosphodiesterase VII) (Homo sapiens (Human), UniProt Q13946), readout IC50, item Cc1nn(C2CCOCC2)c2sc(C(=O)Nc3ccc(N4C(=O)CN(C)C4=O)cc3)cc12
Reply: 37 nM

Query: # value lookup — system PDE 7 (phosphodiesterase VII) (Homo sapiens (Human), UniProt Q13946), readout IC50, item CCOC(=O)c1ccc(NC(=O)c2cc3c(C)nn(C4CCCCC4)c3s2)cc1
Reply: 75 nM

---

Biological target: PDE 4 (phosphodiesterase IV)
Experiment: PDE 4 inhibiting effect (3H-cAMP hydrolysis, PDE 4 active fraction from Balb/c mouse liver)
Assay type: biochemical
Conditions: PDE 4 fraction from Balb/c mice liver, 0.064 μM cAMP, 2 hours at 25° C.; read-out: PDE4 IC50
The following compounds are shown together with reported pIC50 values.
// field semantics: pIC50 = negative decimal log of concentration (mol/L)

Below: 3 compounds and their reported pIC50.
[[record]]
chemical_structure = "Cc1cc(NC(=O)c2cc3c(C)nn(C4CCCCC4)c3s2)ccc1N1CCC(O)CC1"
readout_number = 5.40

[[record]]
chemical_structure = "CC(=O)N1CCCN([C@H]2CC[C@H](NC(=O)c3cc4c(C)nn(C5CCCCC5)c4s3)CC2)CC1"
readout_number = 5.77

[[record]]
chemical_structure = "Cc1nn(C2CCCCC2)c2sc(C(=O)Nc3ccc(C(=O)O)cc3)cc12"
readout_number = 4.92


Query: # value lookup — system PDE 4 (phosphodiesterase IV), readout pIC50, item COCC(=O)Nc1ccc(NC(=O)c2cc3c(C)nn(C4CCCCC4)c3s2)cc1
Reply: 5.89

Query: # value lookup — system PDE 4 (phosphodiesterase IV), readout pIC50, item Cc1nn(C2CCCCC2)c2sc(C(=O)Nc3cccc(S(=O)(=O)N4CCC(O)CC4)c3)cc12
Reply: 5.20

Sourced from patent US8901315B2
